Numbers sourced from patent US20150175599A1.

- System: UniProtKB O00519
- Sequence (O00519 whole entry): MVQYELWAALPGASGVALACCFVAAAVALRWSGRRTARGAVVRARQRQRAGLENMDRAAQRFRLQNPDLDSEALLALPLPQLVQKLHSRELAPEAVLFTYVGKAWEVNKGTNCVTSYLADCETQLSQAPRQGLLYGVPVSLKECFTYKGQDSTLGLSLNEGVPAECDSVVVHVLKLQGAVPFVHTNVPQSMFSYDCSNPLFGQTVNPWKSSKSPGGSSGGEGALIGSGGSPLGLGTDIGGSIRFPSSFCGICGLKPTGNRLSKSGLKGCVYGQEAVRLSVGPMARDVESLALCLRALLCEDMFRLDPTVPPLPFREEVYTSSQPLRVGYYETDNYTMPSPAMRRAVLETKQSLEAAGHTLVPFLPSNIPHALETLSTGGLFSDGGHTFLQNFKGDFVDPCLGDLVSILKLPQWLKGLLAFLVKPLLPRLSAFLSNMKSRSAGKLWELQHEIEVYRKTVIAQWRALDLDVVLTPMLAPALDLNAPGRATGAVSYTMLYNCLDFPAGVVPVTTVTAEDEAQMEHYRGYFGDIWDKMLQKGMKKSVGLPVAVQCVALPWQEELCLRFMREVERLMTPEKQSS
- Method description: Whole cell anandamide hydrolysis assay (HeLa clone 5c5 transfected with human FAAH-1)
- Type: cell-based
pIC50: −log10 of the molar value.
Quantity: pIC50

Input line: Need pIC50, item COc1cc(NC(=O)C(=O)c2c(C)n(Cc3ncc(F)cc3F)c3ccc(C)cc23)ccn1
Output line: > 7.00

---

- System: hERG channel (Homo sapiens)
- Construct: expressed in transfected cells; host or cells: CHO (hERG-CHO), under Geneticin selection
- Sequence (Q12809 whole entry): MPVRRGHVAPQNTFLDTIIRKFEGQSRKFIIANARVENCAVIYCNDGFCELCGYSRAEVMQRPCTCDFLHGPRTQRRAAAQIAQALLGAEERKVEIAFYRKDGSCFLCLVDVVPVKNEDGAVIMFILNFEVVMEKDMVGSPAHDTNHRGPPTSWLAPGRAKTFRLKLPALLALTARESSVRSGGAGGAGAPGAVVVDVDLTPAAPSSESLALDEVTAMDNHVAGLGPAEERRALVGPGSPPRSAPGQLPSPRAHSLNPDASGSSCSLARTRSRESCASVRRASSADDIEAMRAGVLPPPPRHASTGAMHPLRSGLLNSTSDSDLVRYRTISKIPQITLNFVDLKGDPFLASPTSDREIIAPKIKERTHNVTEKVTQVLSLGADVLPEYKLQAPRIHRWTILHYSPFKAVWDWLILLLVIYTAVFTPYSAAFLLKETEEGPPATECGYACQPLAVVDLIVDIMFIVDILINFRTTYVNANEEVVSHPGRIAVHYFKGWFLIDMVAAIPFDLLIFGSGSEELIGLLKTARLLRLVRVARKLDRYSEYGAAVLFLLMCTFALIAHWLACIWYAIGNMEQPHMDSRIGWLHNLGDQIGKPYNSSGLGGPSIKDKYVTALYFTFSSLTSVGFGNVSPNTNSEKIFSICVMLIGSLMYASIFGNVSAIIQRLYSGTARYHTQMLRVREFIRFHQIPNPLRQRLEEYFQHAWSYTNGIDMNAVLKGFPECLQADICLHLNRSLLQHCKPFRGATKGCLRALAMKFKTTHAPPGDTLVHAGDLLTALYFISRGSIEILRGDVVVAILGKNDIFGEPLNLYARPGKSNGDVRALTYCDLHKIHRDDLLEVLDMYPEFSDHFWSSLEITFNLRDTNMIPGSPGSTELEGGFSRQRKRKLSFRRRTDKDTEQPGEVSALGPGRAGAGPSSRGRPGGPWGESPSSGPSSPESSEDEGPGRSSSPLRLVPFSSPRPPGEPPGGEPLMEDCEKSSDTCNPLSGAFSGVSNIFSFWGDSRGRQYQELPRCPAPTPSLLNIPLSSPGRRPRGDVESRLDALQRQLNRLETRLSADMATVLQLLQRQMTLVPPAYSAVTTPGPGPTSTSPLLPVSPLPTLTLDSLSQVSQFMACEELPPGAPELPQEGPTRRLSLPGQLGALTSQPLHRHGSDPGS
- Method description: hERG channel inhibition, automated patch clamp (IonWorks HT, hERG-CHO)
- Type: cell-based
- Test conditions: CHO cells expressing hERG, 10 μM compound, 600 s incubation, read-out: hERG Channel Inhibition % (at 10 μM), vehicle-subtracted values
Quantity: inhibition at 600 s, 10 µM

INSERT INTO results (smiles_data, result) VALUES
  ('COc1ccc(Cn2c(C)c(C(=O)C(=O)Nc3ccnc(OC)c3)c3cc(C)ccc32)nc1', '< 25%'),
  ('COc1cc(NC(=O)C(=O)c2c(C)n(Cc3ncc(F)cc3F)c3cc(F)c(OC)cc23)ccn1', '< 25%'),
  ('COc1cc(NC(=O)C(=O)c2c(C)n(Cc3ccc(Cl)cc3)c3ccc(C#N)cc23)ccn1', '50 to 75%'),
  ('COc1cnc2c(c1)c(C(=O)C(=O)Nc1ccnc(OC)c1)c(C)n2Cc1ccc(Cl)cc1Cl', '50 to 75%'),
  ('COc1ccc2c(c1)c(C(=O)C(=O)Nc1ccnc(OC)c1)c(C)n2Cc1ccccn1', '< 25%'),
  ('COc1cnc2c(c1)c(C(=O)C(=O)Nc1ccnc(OC)c1)c(C)n2Cc1ccc(Cl)cc1', '25 to 50%');

Input line: Given COc1ccc2c(c1)c(C(=O)C(=O)Nc1ccnc(OC)c1)c(C)n2Cc1ccc(Cl)cn1 , state its recorded inhibition at 600 s, 10 µM.
Output line: < 25%

Input line: Please answer likewise for COc1cc(NC(=O)C(=O)c2c(C)n(Cc3ccc(Cl)cn3)c3ccccc23)ccn1
Output line: < 25%

Input line: What do we get for COc1cc(NC(=O)C(=O)c2c(C)n(Cc3ccc(Cl)cn3)c3ccc(C)cc23)ccn1 ?
Output line: 50 to 75%

Input line: Same read-out for COc1cc(NC(=O)C(=O)c2c(C)n(Cc3ccc(Cl)cc3Cl)c3cc(F)c(OC)cc23)ccn1 ?
Output line: < 25%

Input line: // query: COc1ccc2c(c1)c(C(=O)C(=O)Nc1cc(OC)ncc1F)c(C)n2Cc1ccc(Cl)cc1
Output line: < 25%

Input line: // next record COc1cc(NC(=O)C(=O)c2c(C)n(Cc3ccc(Cl)cn3)c3ccc(Cl)cc23)ccn1
Output line: 50 to 75%

Input line: Can you check COc1cc(NC(=O)C(=O)c2c(C)n(Cc3ncc(Cl)cc3Cl)c3ccc(C)cc23)ccn1 next?
Output line: 50 to 75%

Input line: Moving on to the next compound: COc1cc(NC(=O)C(=O)c2c(C)n(Cc3ccc(Cl)cc3)c3ccc(N(C)C)cc23)ccn1
Output line: < 25%

Input line: Follow-up item: COc1cnc2c(c1)c(C(=O)C(=O)Nc1ccnc(OC)c1)c(C)n2Cc1ncc(Cl)cc1F
Output line: < 25%

Input line: Lookup COc1cc(NC(=O)C(=O)c2c(C)n(Cc3ccc(Cl)cc3)c3ccc(C(=O)N(C)C)cc23)ccn1
Output line: < 25%

Input line: Now this one: COc1ccc2c(c1)c(C(=O)C(=O)Nc1ccnc(OC)c1)c(C)n2Cc1cnc(Cl)cn1
Output line: < 25%

Input line: Then COc1cnc2c(c1)c(C(=O)C(=O)Nc1ccnc(OC)c1)c(C)n2Cc1ccc(Cl)cn1 ?
Output line: 25 to 50%

Input line: Do the same for COc1cc(NC(=O)C(=O)c2c(C)n(Cc3ccc(Cl)cn3)c3cc(F)c(OC)cc23)ccn1 please
Output line: 25 to 50%

Input line: Query COc1ccc(Cn2c(C)c(C(=O)C(=O)Nc3ccnc(OC)c3)c3cc(OC)ccc32)nc1 next
Output line: < 25%

Input line: Would you mind doing COc1cc(NC(=O)C(=O)c2c(C)n(Cc3ccc(Cl)cc3)c3ccc(Br)cc23)ccn1 as well?
Output line: < 25%

Input line: Consider next the compound COc1cc(NC(=O)C(=O)c2c(C)n(Cc3ccc(Cl)cc3)c3ccc(OC)nc23)ccn1 in the same way.
Output line: < 25%
